Target: PPARγ ligand-binding domain (Homo sapiens)
Construct: PPARγ-LBD was added to the compounds; purchased Life Technologies Corporation
Sequence (P37231 238-503 limits assumed): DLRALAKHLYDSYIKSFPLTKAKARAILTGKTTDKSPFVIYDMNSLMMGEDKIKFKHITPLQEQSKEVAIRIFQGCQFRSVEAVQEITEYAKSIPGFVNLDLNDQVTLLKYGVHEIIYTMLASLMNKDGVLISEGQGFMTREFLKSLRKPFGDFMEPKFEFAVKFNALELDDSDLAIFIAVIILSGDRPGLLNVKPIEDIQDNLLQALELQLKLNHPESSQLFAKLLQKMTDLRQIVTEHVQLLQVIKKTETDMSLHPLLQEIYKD
Assay: LanthaScreen TR-FRET PPARγ Coactivator Assay Kit (binding to PPARγ LBD)
Assay type: biochemical
Conditions: EC50 (PPARγ, representative dose response, Figure 3A), value in Figure 3A; representative experiment
ENDPOINT: EC50
Please make sure the unit comes right after the number.

q: // output EC50; input COc1ccc2[nH]cc(CCN)c2c1 [5-MTT, 5-methoxytryptamine] ; system PPARγ ligand-binding domain (Homo sapiens)
a: 63 µM
